Kd reference
- target_desc: T1, human IL-17A/F (human, UniProt Q16552 24-155; Q96PD4 31-163)
- T1 construct: Recombinant; biotinylated in the ELISA; also called hIL-17A/F; HuIL-17A/F
- assay_method_text: SPR (Biacore 3000), antibody captured by anti-Fc, antigen in solution;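 note: purified recombinant IL-17 antigens flowed over captured antibodies in HBS-EP buffer, global Langmuir one-to-one fit of association and dissociation phases, KD derived from koff over kon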
Record the value in nM, omitting the unit from your answer.

# count of solved cases: 2
binder="IL17-h5C5.9 (antibody, V domains shown, IgG; constant regions not specified; also called h5C5.9 (VH.1b-Vk.1a)) VH: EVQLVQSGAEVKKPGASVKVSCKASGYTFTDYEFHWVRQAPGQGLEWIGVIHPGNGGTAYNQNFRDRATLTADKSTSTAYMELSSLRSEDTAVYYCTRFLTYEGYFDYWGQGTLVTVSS VL: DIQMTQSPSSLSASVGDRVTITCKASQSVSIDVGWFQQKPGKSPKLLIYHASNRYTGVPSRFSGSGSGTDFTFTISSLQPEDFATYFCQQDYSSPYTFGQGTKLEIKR" unit_of_measure=nM experimental_result=1.21
binder="IL17-h5C5.14 (antibody, V domains shown, IgG; constant regions not specified; also called h5C5.14 (VH.1-Vk.3a)) VH: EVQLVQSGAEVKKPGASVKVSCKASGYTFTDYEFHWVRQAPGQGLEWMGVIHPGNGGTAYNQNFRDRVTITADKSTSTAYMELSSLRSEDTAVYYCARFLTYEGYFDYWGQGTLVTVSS VL: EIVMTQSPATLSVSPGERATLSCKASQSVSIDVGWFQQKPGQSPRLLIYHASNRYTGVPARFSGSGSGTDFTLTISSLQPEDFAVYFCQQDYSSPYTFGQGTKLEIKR" unit_of_measure=nM experimental_result=1.11

The record that follows has no Kd shown yet.
# return recorded Kd for input IL17-h10F7.11 (antibody, V domains shown, IgG; constant regions not specified; also called h10F7.11 (VH.1a-Vk.2a)) VH: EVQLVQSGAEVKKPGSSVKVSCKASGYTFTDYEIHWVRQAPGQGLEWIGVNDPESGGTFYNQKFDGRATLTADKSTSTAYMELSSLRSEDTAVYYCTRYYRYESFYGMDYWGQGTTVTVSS VL: EIVLTQSPDFQSVTPKEKVTITCSASSSISYIYWFQQKPDQSPKRWIYATFELASGVPSRFSGSGSGTDYTLTINSLEAEDAATYYCHQRSSYPWTFGQGTKLEIKR
2.11
